Ref: patent US20250361241A1

target-under-test: HPK1 (Homo sapiens (Human))
Sequence (Q92918 whole entry, species assumed): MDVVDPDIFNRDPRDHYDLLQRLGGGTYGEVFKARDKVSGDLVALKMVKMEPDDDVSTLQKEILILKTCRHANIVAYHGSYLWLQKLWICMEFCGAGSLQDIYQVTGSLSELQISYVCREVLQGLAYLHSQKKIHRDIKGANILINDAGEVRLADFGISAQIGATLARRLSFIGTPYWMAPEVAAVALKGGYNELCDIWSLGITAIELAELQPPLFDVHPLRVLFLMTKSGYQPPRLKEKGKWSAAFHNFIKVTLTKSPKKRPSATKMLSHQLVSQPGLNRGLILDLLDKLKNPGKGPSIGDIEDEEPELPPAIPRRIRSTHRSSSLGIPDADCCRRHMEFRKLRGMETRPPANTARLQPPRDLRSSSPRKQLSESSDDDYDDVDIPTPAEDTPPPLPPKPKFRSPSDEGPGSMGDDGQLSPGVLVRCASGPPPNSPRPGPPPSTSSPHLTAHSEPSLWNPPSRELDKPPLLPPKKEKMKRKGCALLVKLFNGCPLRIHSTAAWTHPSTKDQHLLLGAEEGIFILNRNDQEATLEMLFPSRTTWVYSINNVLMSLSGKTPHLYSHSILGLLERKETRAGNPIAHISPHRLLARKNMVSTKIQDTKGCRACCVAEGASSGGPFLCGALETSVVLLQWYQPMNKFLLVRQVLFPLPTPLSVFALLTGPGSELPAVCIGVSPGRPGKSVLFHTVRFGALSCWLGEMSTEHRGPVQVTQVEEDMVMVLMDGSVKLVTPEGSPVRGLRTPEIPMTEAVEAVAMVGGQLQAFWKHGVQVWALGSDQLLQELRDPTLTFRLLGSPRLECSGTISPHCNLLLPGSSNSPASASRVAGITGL
method-description: HPK1 enzyme activity detection (1 mM ATP system), ADP-Glo, Pharmacological Experiment 1
Assay type: biochemical
observable: IC50 (nM)
All answers are understood in nM, so give the number only.

A selection of reference data follows.
INSERT INTO assay_data (molecule, target_under_test, observable, measurement) VALUES
  ('CN(C)C1CCC2(CCOCC2)c2ccc(Nc3ccc(-c4cnc5cc(F)ccn45)c4c3C(=O)NC4)cc21 (stereo not drawn)', 'HPK1 (Homo sapiens (Human))', 'IC50', 61.2),
  ('CN(C)C1CC2(CCOCC2)c2ccc(Nc3ccc(-c4cnc5cc(F)ccn45)c4c3C(=O)NC4)nc21 (stereo not drawn)', 'HPK1 (Homo sapiens (Human))', 'IC50', 7.01),
  ('Cc1cc(Nc2cnc(-c3ccnc4c3ccn4C)c3c2C(=O)NC3)cc2c1C1(CCOCC1)CN(C)C2', 'HPK1 (Homo sapiens (Human))', 'IC50', 54.8),
  ('Cc1cc(Nc2ccc(-c3cnc4cc(F)ccn34)c3c2C(=O)NC3)cc2c1C1(CCOCC1)CN(C)C2', 'HPK1 (Homo sapiens (Human))', 'IC50', 6.14),
  ('Cc1cc(Nc2ccc(-c3cnc4cc(F)ccn34)c3c2C(=O)NC3)cc2c1C1(CC1)CN(C)C2', 'HPK1 (Homo sapiens (Human))', 'IC50', 20.6);

Prompt: Any idea what IC50 was measured for CN(C)C1CC2(CCOCC2)c2ccc(Nc3ccc(-c4cnc5cc(F)ccn45)c4c3C(=O)NC4)cc21 (stereo not drawn) ?
Response: 205

====

Quick reference: IC50 of the listed items.
target-under-test: GLK (Homo sapiens (Human), UniProt Q8IVH8)
Sequence (Q8IVH8 whole entry, species assumed): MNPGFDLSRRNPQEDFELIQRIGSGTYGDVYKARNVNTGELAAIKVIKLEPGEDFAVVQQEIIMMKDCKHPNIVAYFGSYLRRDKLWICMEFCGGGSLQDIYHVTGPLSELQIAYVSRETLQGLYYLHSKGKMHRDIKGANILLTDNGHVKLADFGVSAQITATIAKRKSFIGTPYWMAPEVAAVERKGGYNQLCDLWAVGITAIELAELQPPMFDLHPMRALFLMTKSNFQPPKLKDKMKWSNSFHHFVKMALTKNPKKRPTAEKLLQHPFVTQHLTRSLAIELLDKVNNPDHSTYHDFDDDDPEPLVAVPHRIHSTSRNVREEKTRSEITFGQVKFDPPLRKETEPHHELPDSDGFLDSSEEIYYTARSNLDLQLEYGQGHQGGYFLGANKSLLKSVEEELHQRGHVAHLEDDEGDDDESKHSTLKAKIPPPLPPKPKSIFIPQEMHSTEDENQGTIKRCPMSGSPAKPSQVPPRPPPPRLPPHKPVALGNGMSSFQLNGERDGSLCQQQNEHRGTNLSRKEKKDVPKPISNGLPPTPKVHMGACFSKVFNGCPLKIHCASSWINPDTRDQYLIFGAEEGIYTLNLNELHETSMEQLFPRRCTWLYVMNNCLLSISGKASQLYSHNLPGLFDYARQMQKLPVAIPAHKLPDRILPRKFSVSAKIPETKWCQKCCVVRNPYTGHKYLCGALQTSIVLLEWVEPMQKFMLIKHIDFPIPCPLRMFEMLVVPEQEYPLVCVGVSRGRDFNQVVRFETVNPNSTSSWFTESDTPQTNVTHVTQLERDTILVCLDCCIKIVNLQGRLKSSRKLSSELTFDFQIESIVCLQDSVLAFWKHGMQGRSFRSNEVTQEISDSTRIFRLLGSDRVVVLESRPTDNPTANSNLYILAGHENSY
All answers are understood in nM, so give the number only.

A selection of reference data follows.
INSERT INTO measurements (compound, measurement) VALUES
  ('CO[C@H]1CCN(C2CC3(CCOCC3)c3ccc(Nc4ccc(-c5cnc6cc(F)ccn56)c5c4C(=O)NC5)nc32)C1 (stereo partly drawn) [Compound 76]', 286),
  ('O=C1NCc2c(-c3cnn4c3CCCC4)ccc(Nc3ccc4c(n3)CNCC43CCOCC3)c21 [Compound 154]', 646);

Prompt: Under GLK (Homo sapiens (Human), UniProt Q8IVH8): IC50 value of O=C1NCc2c(-c3cnc4cc(Cl)ccn34)ccc(Nc3ccc4c(n3)CCCC43CCOCC3)c21 [Compound 122] ?
Response: 455

Prompt: Under GLK (Homo sapiens (Human), UniProt Q8IVH8): IC50 value of CN(C)[C@@H]1CC2(CCOCC2)c2ccc(Nc3ccc(-c4cnc5cc(F)ccn45)c4c3C(=O)NC4)nc21 [Compound 2B] ?
Response: 464

Prompt: Under GLK (Homo sapiens (Human), UniProt Q8IVH8): IC50 value of CN(C)C1CCC2(CCOCC2)c2ccc(Nc3ccc(-c4cnc5cc(F)ccn45)c4c3C(=O)NC4)nc21 (stereo not drawn) [Compound 3] ?
Response: 2860

Prompt: Under GLK (Homo sapiens (Human), UniProt Q8IVH8): IC50 value of CN(C)C1CC2(CCOCC2)c2ccc(Nc3ccc(-c4cnc5cc(C(F)F)ccn45)c4c3C(=O)NC4)nc21 (stereo not drawn) [Compound 160] ?
Response: 460

Prompt: Under GLK (Homo sapiens (Human), UniProt Q8IVH8): IC50 value of O=C1NCc2c(-c3cnc4cc(OC(F)F)ccn34)ccc(Nc3ccc4c(n3)C(NC3CC3)CC43CCOCC3)c21 (stereo not drawn) [Compound 178] ?
Response: 1240

Prompt: Under GLK (Homo sapiens (Human), UniProt Q8IVH8): IC50 value of O=C1NCc2c(-c3cnc4cc(OC(F)F)ccn34)ccc(Nc3ccc4c(n3)C(N3CCCC3)CC43CCOCC3)c21 (stereo not drawn) [Compound 169] ?
Response: 223

Prompt: Under GLK (Homo sapiens (Human), UniProt Q8IVH8): IC50 value of Cc1ccn2c(-c3ccc(Nc4ccc5c(n4)C(N(C)C)CC54CCOCC4)c4c3CNC4=O)cnc2c1 (stereo not drawn) [Compound 161] ?
Response: 311

Prompt: Under GLK (Homo sapiens (Human), UniProt Q8IVH8): IC50 value of O=C1NCc2c(-c3cnc4n3CCOC4)ccc(Nc3ccc4c(n3)CNCC43CCOCC3)c21 [Compound 153] ?
Response: 2170

Prompt: Under GLK (Homo sapiens (Human), UniProt Q8IVH8): IC50 value of O=C1NCc2c(-c3cnc4n3CCCC4)ccc(Nc3ccc4c(n3)CCCC43CCOCC3)c21 [Compound 167] ?
Response: 1370

Prompt: Under GLK (Homo sapiens (Human), UniProt Q8IVH8): IC50 value of O=C1NCc2c(-c3cnc4cc(F)ccn34)ccc(Nc3ccc4c(n3)C(NC3CCOCC3)CC43CCOCC3)c21 (stereo not drawn) [Compound 108] ?
Response: 1050

====

target-under-test: GLK (Homo sapiens (Human))
observable: log10 IC50 (log10 of the value in nM)
The base-10 logarithm of IC50, taken with IC50 in nM, is what appears here.

INSERT INTO results (compound, target_under_test, observable, measurement) VALUES
  ('CN(C)C1CCC2(CCOCC2)c2ccc(Nc3ccc(-c4cnn5cc(F)ccc45)c4c3C(=O)NC4)nc21 (stereo not shown) [Compound 32]', 'GLK (Homo sapiens (Human))', 'log10 IC50', 2.78),
  ('CN(C)C1CC2(CCOC2)c2ccc(Nc3ccc(-c4cnc5cc(OC(F)F)ccn45)c4c3C(=O)NC4)nc21 (stereo not shown) [Compound 172]', 'GLK (Homo sapiens (Human))', 'log10 IC50', 3.05),
  ('COCCNC1CC2(CCOCC2)c2ccc(Nc3ccc(-c4cnc5cc(F)ccn45)c4c3C(=O)NC4)nc21 (stereo not shown) [Compound 106]', 'GLK (Homo sapiens (Human))', 'log10 IC50', 2.84),
  ('CN(C)C1CC2(CCOCC2)c2ccc(Nc3ccc(-c4cnn5cccnc45)c4c3C(=O)NC4)nc21 (stereo not shown) [Compound 38]', 'GLK (Homo sapiens (Human))', 'log10 IC50', 2.37),
  ('CCN1Cc2nc(Nc3ccc(-c4cnc5cc(F)ccn45)c4c3C(=O)NC4)ccc2C2(CCOCC2)C1 [Compound 124]', 'GLK (Homo sapiens (Human))', 'log10 IC50', 3.44),
  ('CN(C)C1CC2(CCOC2)c2ccc(Nc3ccc(-c4cnc5cc(F)ccn45)c4c3C(=O)NC4)nc21 (stereo not shown) [Compound 58]', 'GLK (Homo sapiens (Human))', 'log10 IC50', 3.17);

Next item in the queue.
Prompt: Any idea what log10 IC50 was measured for CN(C)C1CCC2(CCOCC2)c2ccc(Nc3ccc(-c4ccnc5c4ccn5C)c4c3C(=O)NC4)nc21 (stereo not shown) [Compound 34] ?
Response: 2.89

====

method-description: PK study of compound in dogs
Format: in vivo
applied-conditions: plasma; Beagle dog, PO 10 mg/kg, saline
observable: AUC (ng·h/mL)
All answers are understood in ng·h/mL, so give the number only.

Prompt: Any idea what AUC was measured for CN(C)Cc1nc(Nc2ccc(-c3cnc4cc(F)ccn34)c3c2C(=O)NC3)ccc1C1CCOCC1 [Compound D1, reference compound] ?
Response: 396

====

target-under-test: UniProt Q8IVH8
pIC50: −log10 of the molar value.
Where pIC50 equals or exceeds 6, the correct label is Criterion met; where it does not, the label is Criterion not met.

Completed entries (count: 5):
INSERT INTO results (molecule, label_value) VALUES
  ('CN(C)[C@@H]1CC2(CCOCC2)c2ccc(Nc3ccc(-c4cnc5cc(OC(F)F)ccn45)c4c3C(=O)NC4)nc21 [Compound 158A]', 'Criterion met'),
  ('CN(C)C1COC2(CCOCC2)c2ccc(Nc3ccc(-c4cnc5cc(F)ccn45)c4c3C(=O)NC4)nc21 (stereo not shown) [Compound 49]', 'Criterion met'),
  ('COC1(C)CCN(C2CC3(CCOCC3)c3ccc(Nc4ccc(-c5cnc6cc(F)ccn56)c5c4C(=O)NC5)nc32)CC1 (stereo not shown) [Compound 94]', 'Criterion not met'),
  ('N#Cc1ccn2c(-c3ccc(Nc4ccc5c(n4)C(N4CCCC4)CC54CCOCC4)c4c3CNC4=O)cnc2c1 (stereo not shown) [Compound 168]', 'Criterion met'),
  ('COc1ccn2c(-c3ccc(Nc4ccc5c(n4)C(N(C)C)CC54CCOC4)c4c3CNC4=O)cnc2c1 (stereo not shown) [Compound 180]', 'Criterion not met');

As a next step, examine the molecule that follows.
Prompt: Evaluate CN(C)C1CC2(CCOCC2)c2ccc(Nc3ccc(-c4cnc5cc(N)ccn45)c4c3C(=O)NC4)nc21 (stereo not shown) [Compound 174] : pIC50 at minimum 6?
Response: Criterion met

====

Quick reference: pIC50 of the listed items.
target-under-test: HPK1 (Homo sapiens (Human))
method-description: HPK1 enzyme activity detection (1 mM ATP system), ADP-Glo with MBP substrate, Pharmacological Experiment 2
Assay type: biochemical
Please keep in mind that pIC50 is minus log10 of the molar concentration; only the number is needed.

A selection of reference data follows.
INSERT INTO measurements (compound, target_under_test, measurement) VALUES
  ('CN(C)C1CCC2(CCOCC2)c2ccc(Nc3ccc(-c4ccnc5c4ccn5C)c4c3C(=O)NC4)nc21 (stereo not shown)', 'HPK1 (Homo sapiens (Human))', 8.09),
  ('COC1(C)CN(C2CC3(CCOCC3)c3ccc(Nc4ccc(-c5cnc6cc(F)ccn56)c5c4C(=O)NC5)nc32)C1 (stereo not shown)', 'HPK1 (Homo sapiens (Human))', 8.52),
  ('O=C1NCc2c(-c3cnc4cc(F)ccn34)ccc(Nc3ccc4c(n3)C(N3CCOCC3)CC43CCOCC3)c21 (stereo not shown)', 'HPK1 (Homo sapiens (Human))', 8.22);

Prompt: Any idea what pIC50 was measured for CC1(O)CCN(C2CC3(CCOCC3)c3ccc(Nc4ccc(-c5cnc6cc(F)ccn56)c5c4C(=O)NC5)nc32)CC1 (stereo not shown) ?
Response: 8.20

Prompt: Any idea what pIC50 was measured for CN(C)C1CC2(CCOCC2)c2ccc(Nc3ccc(-c4cnc5ncccn45)c4c3C(=O)NC4)nc21 (stereo not shown) ?
Response: 8.52

Prompt: Any idea what pIC50 was measured for CN(C)C1CCC2(CCOCC2)c2ccc(Nc3ccc(-c4cnc5cc(Cl)ccn45)c4c3C(=O)NC4)nc21 (stereo not shown) ?
Response: 8.34

Prompt: Any idea what pIC50 was measured for O=C1NCc2c(-c3cnc4cc(F)ccn34)ccc(Nc3ccc4c(n3)C(N3CCOC5(CC5)C3)CC43CCOCC3)c21 (stereo not shown) ?
Response: 7.52
